- TEST NAME: NCI Yeast Anticancer Drug Screen. Data for the cln2 rad14 strain (AID 165);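 also: 0% = growth equal to vehicle treated cultures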
- SETUP CONDITIONS: S. cerevisiae cln2 rad14 strain, at 50.0 µM (retest, dose inferred, filed as 5.0)
- Procedure: Growth inhibition of yeast strains with defined genetic alterations is measured as a screen for potential anti-cancer activity. Selected strains with alterations in DNA damage repair or cell cycle control were exposed to compounds and growth inhibition was measured relative to vehicle treated controls. The strain used in this assay is cln2 rad14
The panel holds about 79,000 compounds, 15% with a hit somewhere; the sample as a whole holds those more often. Calls of active or inactive are those of the source. Rule as the data show it: active = growth inhibition above about 70%; inactive = the rest.
// classify into 1 (yes) = active, 0 (no) = inactive

Look up the recorded call for CN=C(N)N/N=C/c1ccc2c(c1)Cc1ccccc1-2 in this test.
0 (no)

====

- TEST NAME: NCI Yeast Anticancer Drug Screen. Data for the mlh1 rad18 strain (AID 175)
- SETUP CONDITIONS: S. cerevisiae mlh1 rad18 strain growth inhibition; at 50.0 µM
This is part of a sample that, as a whole, favours compounds with a hit. Of some 79,000 tested, about 15% had one in any assay. Activity calls are given as the source filed them. Cut-off read from the data, not from the text of the source: active = growth inhibition above about 70%; inactive = the rest.
// classify into 1.0 for active, 0.0 for inactive

Consider the worked cases shown below.
1) COP(=O)(OC)/C(=C\C1=CN(C(c2ccccc2)(c2ccccc2)c2ccccc2)CN1)NC=O | 1.0
2) Oc1c(Br)cc(Br)cc1C1CCCCC1 | 1.0
3) CC(C(=O)N1C(=O)N(C(=O)[C@H](C)C(O)c2ccccc2)[C@H](c2ccccc2)[C@H]1c1ccccc1)[C@@H](O)c1ccccc1 (stereo not given in full) | 1.0
4) CC(C)/C(Cl)=N\OC(=O)Nc1ccc(F)cc1 | 0.0

Look up the recorded call for O=C(/C=C\c1ccc(Cl)cc1Cl)c1cccs1 in this test.
0.0

Look up the recorded call for Cc1c(Cl)ccc2c1S(=O)(=O)c1cccc(Cl)c1-2 in this test.
0.0

Look up the recorded call for O=C(NNc1ccnc2cc(Cl)ccc12)/C(=C\c1ccccc1Cl)NC(=O)c1ccccc1 in this test.
1.0

Look up the recorded call for CCCCN1C(=O)N(c2ccc(OCC)cc2)C2N(CCCC)C1C(C)(C)C2(C)C (stereo not given) in this test.
0.0

Look up the recorded call for O=[N+]([O-])c1ccc(=S)[nH]c1 in this test.
1.0

Look up the recorded call for CC1OCC2OC(C)OC(C3C4=C(CC(C)(C)CC4=O)OC4=C3C(=O)CC(C)(C)C4)C2O1 (stereo not given) in this test.
1.0

====

- TEST NAME: NCI Yeast Anticancer Drug Screen. Data for the mec2-1 strain (AID 157)
- SETUP CONDITIONS: S. cerevisiae mec2-1 strain, at 50.0 µM (retest, dose inferred, filed as 5.0), active compounds read high
About 79,000 compounds went through this panel and 15% of them were active in at least one assay; those are over-represented in the sample as a whole.
As shown below, each of these compounds has a reported growth inhibition value.
Only the number, expressed in %, is required.

Worked cases, answers included:
1. C[Si](C)(C)CNC(=O)OCc1ccccc1 | 32
2. Cn1c(N)nc(-c2ccc(Cl)cc2)c1SSc1c(-c2ccc(Cl)cc2)nc(N)n1C | 13
3. CN(C)Cc1cc(N=Nc2ccc(Cl)cc2)cc(CN(C)C)c1O | 47
4. c1ccc2c(c1)C(=NCCCN1CCCCCC1)c1cccn1-2 | -3
5. O=C1c2ccccc2-c2n[nH]c3cccc1c23 | 100

We now examine a further compound.
Quick one: growth inhibition of CCOC(=O)C1=C(C(=O)c2ccccc2)C(c2ccccc2[N+](=O)[O-])C(C(=O)c2ccccc2)=C(C(=O)OCC)N1 ?
20

====

- TEST NAME: NCI Yeast Anticancer Drug Screen. Data for the bub3 strain (AID 167)
- SETUP CONDITIONS: S. cerevisiae bub3 mutant strain, at 5.0 µM (retest, dose inferred, filed as 0.5), active compounds read high
About 79,000 compounds went through this panel and 15% of them were active in at least one assay; those are over-represented in the sample as a whole.
Answer No if growth inhibition is under 30%, and Yes if it is 30% or more.

1. CC/C(=C(\c1ccccc1)c1ccc(OCCN(C)C)cc1)c1ccccc1 | No
2. CNC(=O)OCc1c(COC(=O)NC)c(-c2ccc(-c3ccccc3)cc2)n(C)c1C | No
3. CSC1=NNC(SC)=NN1 | Yes
4. CCC(C)COC(=O)c1ccc(N=Cc2ccc(C=Nc3ccc(C(=O)OCC(C)CC)cc3)cc2)cc1 (stereo not drawn) | No
5. Cc1nc(-[n+]2nc(-c3ccncc3)nn2-c2ccccc2)sc1C | No

Does the compound O=C(CCCN1CCC2(CC1)CC(=O)N(N1CCCCCC1)C2=O)c1ccc(F)cc1 have recorded growth inhibition that is 30% or more?
Yes

Does the compound O=c1c2ccccc2ncn1COCc1ccccc1 have recorded growth inhibition that is 30% or more?
No

Does the compound C=C1CC(Cn2cc(Br)c(=O)[nH]c2=O)(c2ccc(-c3ccccc3)cc2)OC1=O (stereo not drawn) have recorded growth inhibition that is 30% or more?
No

Does the compound OC(COc1cccc2ccccc12)CN1CCOCC1 (stereo not drawn) have recorded growth inhibition that is 30% or more?
Yes

Does the compound CC(=O)Cc1ccc[cH-]1.[Fe+2].c1cc[cH-]c1 have recorded growth inhibition that is 30% or more?
No

Does the compound NC(=S)N/N=C\c1nccc2ccccc12 have recorded growth inhibition that is 30% or more?
No

Does the compound C=C(CN(C)C)C(=O)c1cc(C)ccc1C have recorded growth inhibition that is 30% or more?
Yes

Does the compound CCCC/C=C/C(CC)(C(=O)OCC)C(=O)OCC have recorded growth inhibition that is 30% or more?
No

====

As shown below, each of these compounds has a reported growth inhibition value.
- TEST NAME: NCI Yeast Anticancer Drug Screen. Data for the rad50 strain (AID 155);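 also: 0% = growth of vehicle-only cultures of the same strain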
- SETUP CONDITIONS: S. cerevisiae rad50 strain growth inhibition; at 5.0 µM (retest, dose inferred, filed as 0.5); active compounds read high
The panel holds about 79,000 compounds, 15% with a hit somewhere; the sample as a whole holds those more often.
Only the number, expressed in %, is required.

1) COC(=O)c1ccc([N+](=O)[O-])c(O)c1 | 2
2) C/C(=N\O)C1CC2C=C(C#N)C1N(Cc1ccccc1)C2 (stereo not drawn) | -6

We now examine a further compound.
Quick one: growth inhibition of CCNc1nnc(CSc2nc(-c3ccccc3)c(-c3ccccc3)[nH]2)s1 ?
7

====

- TEST NAME: NCI Yeast Anticancer Drug Screen. Data for the bub3 strain (AID 167)
- SETUP CONDITIONS: S. cerevisiae bub3 mutant strain, at 100.0 µM, active compounds read high
Compounds without any hit were thinned out: in the full panel of roughly 79,000, 15% have a hit.
As shown below, each of these compounds has a reported growth inhibition value.
Only the number, expressed in %, is required.

Worked cases, answers included:
1. NNC(=O)CCc1ccc2ccc3ccccc3c2c1 | 58
2. CCOC(=O)c1cc([N+](=O)[O-])cc([N+](=O)[O-])c1Sc1ncnc2nc[nH]c12 | 96
3. CN(C)c1ccc(C(C#N)=C(C#N)C#N)cc1 | 31

Quick one: growth inhibition of Cn1ccnc1Oc1ccc(Cl)cc1 ?
97

Quick one: growth inhibition of CC(=O)OC1CCC2(C)C(=CCC3C4CCC5(OC6CC(C)CN(C(C)=O)C6C5C)C(C)=C4C(=O)C32)C1 (stereo unspecified) ?
95

Quick one: growth inhibition of O=C(/C=C/c1cccc(Br)c1)c1cccs1 ?
96

====

- TEST NAME: NCI Yeast Anticancer Drug Screen. Data for the sgs1 mgt1 strain (AID 161);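 also: 0% = growth of cultures given vehicle only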
- SETUP CONDITIONS: S. cerevisiae sgs1 mgt1 strain, at 50.0 µM
- Experimental: Growth inhibition of yeast strains with defined genetic alterations is measured as a screen for potential anti-cancer activity. Selected strains with alterations in DNA damage repair or cell cycle control were exposed to compounds and growth inhibition was measured relative to vehicle treated controls. The strain used in this assay is sgs1 mgt1
Compounds without any hit were thinned out: in the full panel of roughly 79,000, 15% have a hit. Calls of active or inactive are those of the source. Rule as the data show it: active = growth inhibition above about 70%; inactive = the rest.
// classify into 1.0 (active), 0.0 (inactive)

1. O=C(NNc1ccnc2cc(Cl)ccc12)/C(=C\c1ccccc1Cl)NC(=O)c1ccccc1 | 1.0
2. N#CSc1ccc(S(N)(=O)=O)cc1 | 0.0
3. O=C(Cc1csc2[n+]1C(=O)/C(=C/c1ccc(Cl)cc1)S2)Nc1ccccc1 | 1.0
4. CC(=O)SCCC[Si](C)(C)CCCSC(C)=O | 1.0
5. CCCCCCCCCCNC(=O)OCC | 1.0

Look up the recorded call for O=CC=C(c1ccccc1)c1ccccc1 in this test.
1.0

Look up the recorded call for Cc1c(C(=O)C(=O)c2ccccc2)c(C)c(C(=O)C(=O)c2ccccc2)c(C)c1C(=O)C(=O)c1ccccc1 in this test.
1.0

Look up the recorded call for O=[N+]([O-])c1ccc2c(c1)C(N1CCN(CCO)CC1)Cc1ccc(F)cc1S2 (stereo unspecified) in this test.
1.0

Look up the recorded call for c1ccc2c(c1)sc1nc3ccncc3nc12 in this test.
0.0

Look up the recorded call for CC1OCC2OC(C)OC(C3C4=C(CC(C)(C)CC4=O)OC4=C3C(=O)CC(C)(C)C4)C2O1 (stereo unspecified) in this test.
0.0

Look up the recorded call for COc1ccc(/C(C)=N/OC(=O)c2c(-c3ccccc3Cl)noc2C)cc1CN1CCOCC1 in this test.
1.0

Look up the recorded call for COC(=O)c1ccc([N+](=O)[O-])c(O)c1 in this test.
1.0

Look up the recorded call for C/C(=N\NC(=S)N1CCCCC1)c1cccc(C)n1 in this test.
1.0

Look up the recorded call for CC(C)[N+]([O-])(CCCNc1c2ccccc2nc2cccc([N+](=O)[O-])c12)C(C)C in this test.
1.0
